Source listed as the supplement of paper PMC11417369.

# maps each entry to its gcPBM binding intensity (ln)
test system: PfSIP2 AP2 domain 1 (GST-tagged); experiment: gcPBM binding intensity (ln(normalized median fluorescence intensity)); higher = stronger DNA binding
Whole data set: some 25,000 sequences, median “ln(normalized median fluorescence intensity)” near 7.1, cut for the highest 2% near 10. Many of the other results were omitted from the sample, so the highest values are more common in it than they were.
OUTCOME_MEASURE: gcPBM binding intensity (ln)

{"BIOSEQUENCE": "TTATGGTGCATGAAATCACACATTGATATATATGCT [CACACA_site5352]", "OUTCOME_MEASURE": "gcPBM binding intensity (ln)", "ASSAY_VALUE": 11.3}
{"BIOSEQUENCE": "ATTTTCATGATAAAGGTGCAATTATTTTTATAAGAA", "OUTCOME_MEASURE": "gcPBM binding intensity (ln)", "ASSAY_VALUE": 10.8}
{"BIOSEQUENCE": "ACCTTTAATATATACACACACATAAAAAAAATATAT [CACACA_site1843]", "OUTCOME_MEASURE": "gcPBM binding intensity (ln)", "ASSAY_VALUE": 7.83}
{"BIOSEQUENCE": "CATAATATATATTGAGCATGCTACTATTGTTAGAAA [TGCATGCA_site740]", "OUTCOME_MEASURE": "gcPBM binding intensity (ln)", "ASSAY_VALUE": 6.93}
{"BIOSEQUENCE": "TATAATTTATTAAGGGGTACATATATTTCATGATAA [XGTACX_site5141]", "OUTCOME_MEASURE": "gcPBM binding intensity (ln)", "ASSAY_VALUE": 7.19}
{"BIOSEQUENCE": "TAACAAAACCTTATATGTACACACATATACATCACA [XGTACX_site6772]", "OUTCOME_MEASURE": "gcPBM binding intensity (ln)", "ASSAY_VALUE": 7.16}
{"BIOSEQUENCE": "TTCTATTTGTAAAATTGTACAAAATAAATAACAAAA [XGTACX_site1007]", "OUTCOME_MEASURE": "gcPBM binding intensity (ln)", "ASSAY_VALUE": 7.04}
{"BIOSEQUENCE": "AAAAAAAAAAAAGAAAAATATATATATAAATAAATA [GTGCAC_negctrl_site569]", "OUTCOME_MEASURE": "gcPBM binding intensity (ln)", "ASSAY_VALUE": 6.98}
{"BIOSEQUENCE": "TAATATGAAAAGTGTACACACGCACAGACAAAAAAA [CACACA_site5594]", "OUTCOME_MEASURE": "gcPBM binding intensity (ln)", "ASSAY_VALUE": 7.33}
{"BIOSEQUENCE": "TATGAATGGTTAAGTACACACATATTAAGATATGTA [CACACA_site5852]", "OUTCOME_MEASURE": "gcPBM binding intensity (ln)", "ASSAY_VALUE": 6.99}
{"BIOSEQUENCE": "TATCATGTTTTTATGGTGCATGAAATCACACATTGA", "OUTCOME_MEASURE": "gcPBM binding intensity (ln)", "ASSAY_VALUE": 9.32}
{"BIOSEQUENCE": "AGAAAAATTCTAAGAACATGCAAAAAAATAAAAAAA [TGCATGCA_site293]", "OUTCOME_MEASURE": "gcPBM binding intensity (ln)", "ASSAY_VALUE": 6.84}
{"BIOSEQUENCE": "AATAAATTCATGATAGTGCAAAAATTATTTTTGTTA", "OUTCOME_MEASURE": "gcPBM binding intensity (ln)", "ASSAY_VALUE": 8.49}
{"BIOSEQUENCE": "AATGTGTACGCACGCACACACAAAAAAATATATATA [CACACA_site2913]", "OUTCOME_MEASURE": "gcPBM binding intensity (ln)", "ASSAY_VALUE": 7.24}
{"BIOSEQUENCE": "AATAGTCGGGTGCATACACACCTTAAATATAATATA [CACACA_site8271]", "OUTCOME_MEASURE": "gcPBM binding intensity (ln)", "ASSAY_VALUE": 11.3}
{"BIOSEQUENCE": "AAAAAAAAAATTTTCGTGCACATAAGAAAATTTAAA [GTGCAC_site9788]", "OUTCOME_MEASURE": "gcPBM binding intensity (ln)", "ASSAY_VALUE": 9.36}
{"BIOSEQUENCE": "TGTAATATGAAATGTGTACACACGCACCCACAAAAA [CACACA_site8948]", "OUTCOME_MEASURE": "gcPBM binding intensity (ln)", "ASSAY_VALUE": 10.9}
{"BIOSEQUENCE": "ATATGAAAGGTGTACACACGCACACCCAAAAAAATA [CACACA_site2911]", "OUTCOME_MEASURE": "gcPBM binding intensity (ln)", "ASSAY_VALUE": 7.93}
{"BIOSEQUENCE": "TTTTTTTTCAATGGTTGTACAAAGTAAAACAACAAA [XGTACX_site1582]", "OUTCOME_MEASURE": "gcPBM binding intensity (ln)", "ASSAY_VALUE": 7.2}
{"BIOSEQUENCE": "TATACCTTAATATACACACATACATATATATATATA [CACACA_site1339]", "OUTCOME_MEASURE": "gcPBM binding intensity (ln)", "ASSAY_VALUE": 9.12}

###

test system: PfSIP2 AP2 domain 1 (GST-tagged); experiment: gcPBM binding intensity (ln(normalized median fluorescence intensity)); higher = stronger DNA binding
The full ranking holds about 25,000 sequences; the median of “ln(normalized median fluorescence intensity)” is about 7.1, and the highest 2% start at about 10. The list comes from a sample in which the highest values are over-represented; it also holds close analogues and randomly drawn sequences.

{"BIOSEQUENCE": "AATATAAAAATGCACACACACAAAAAAAAAAAAAAA [CACACA_site6546]", "TARGET_OR_TEST_SYSTEM": "PfSIP2 AP2 domain 1 (GST-tagged)", "gcPBM binding intensity (ln)": 7.37}
{"BIOSEQUENCE": "ATATATAATAATTGTAGTACAATTAATAAATAAAAT [XGTACX_site3840]", "TARGET_OR_TEST_SYSTEM": "PfSIP2 AP2 domain 1 (GST-tagged)", "gcPBM binding intensity (ln)": 7.08}
{"BIOSEQUENCE": "TATTGTTACTTTATATGTACTAATTAAACATATACA [XGTACX_site6363]", "TARGET_OR_TEST_SYSTEM": "PfSIP2 AP2 domain 1 (GST-tagged)", "gcPBM binding intensity (ln)": 7.24}
{"BIOSEQUENCE": "TAGAAAAACATTACGTGTACCAAACATCCTAGCAAC [XGTACX_site4888]", "TARGET_OR_TEST_SYSTEM": "PfSIP2 AP2 domain 1 (GST-tagged)", "gcPBM binding intensity (ln)": 7.19}
{"BIOSEQUENCE": "TGAATAATCAATAGTACACACATATAAATATATATA [CACACA_site2813]", "TARGET_OR_TEST_SYSTEM": "PfSIP2 AP2 domain 1 (GST-tagged)", "gcPBM binding intensity (ln)": 7.28}
{"BIOSEQUENCE": "TACGCACAAAAATATACACACACACCGATATATTTA [CACACA_site9213]", "TARGET_OR_TEST_SYSTEM": "PfSIP2 AP2 domain 1 (GST-tagged)", "gcPBM binding intensity (ln)": 7.15}
{"BIOSEQUENCE": "ACAAAATAATTGTTTACACACCCATTTGTAATTTTA [CACACA_site3615]", "TARGET_OR_TEST_SYSTEM": "PfSIP2 AP2 domain 1 (GST-tagged)", "gcPBM binding intensity (ln)": 6.88}
{"BIOSEQUENCE": "CCGTTGAACATATATGCACACACATAAAATAAAAAA [CACACA_site8761]", "TARGET_OR_TEST_SYSTEM": "PfSIP2 AP2 domain 1 (GST-tagged)", "gcPBM binding intensity (ln)": 7.65}
{"BIOSEQUENCE": "AAAATAAAAAAAATAAATAAAAAAAATAATAATAAA [CACACA_negctrl_site563]", "TARGET_OR_TEST_SYSTEM": "PfSIP2 AP2 domain 1 (GST-tagged)", "gcPBM binding intensity (ln)": 6.55}
{"BIOSEQUENCE": "TTTTATATTCCACAAAAAATTATATAATAATAGAAC [CACACA_negctrl_site1741]", "TARGET_OR_TEST_SYSTEM": "PfSIP2 AP2 domain 1 (GST-tagged)", "gcPBM binding intensity (ln)": 7.26}
{"BIOSEQUENCE": "TAGTTTTTTATAAAATTATTTATATAAAGGTAAAAA [CACACA_negctrl_site490]", "TARGET_OR_TEST_SYSTEM": "PfSIP2 AP2 domain 1 (GST-tagged)", "gcPBM binding intensity (ln)": 7.1}
{"BIOSEQUENCE": "TTTTGTTTTTTCAATGTGCACTTAGGATGTTTTTAT [GTGCAC_site9565]", "TARGET_OR_TEST_SYSTEM": "PfSIP2 AP2 domain 1 (GST-tagged)", "gcPBM binding intensity (ln)": 10.6}
{"BIOSEQUENCE": "AATATATGCTTTCGTTATATTAAATTCAATTTAATG [GTGCAC_negctrl_site76]", "TARGET_OR_TEST_SYSTEM": "PfSIP2 AP2 domain 1 (GST-tagged)", "gcPBM binding intensity (ln)": 6.95}
{"BIOSEQUENCE": "TTGATTACACTGAAGTGTACATATATATATATATAT [XGTACX_site3532]", "TARGET_OR_TEST_SYSTEM": "PfSIP2 AP2 domain 1 (GST-tagged)", "gcPBM binding intensity (ln)": 9.07}
{"BIOSEQUENCE": "ACAAAAAAATAAGGTGCACACAAAAAAAAAAAAAAA [CACACA_site8171]", "TARGET_OR_TEST_SYSTEM": "PfSIP2 AP2 domain 1 (GST-tagged)", "gcPBM binding intensity (ln)": 12}
{"BIOSEQUENCE": "TGTTATTATAACATTTTTTTCAAAATAGCTTTAGAA [CACACA_negctrl_site266]", "TARGET_OR_TEST_SYSTEM": "PfSIP2 AP2 domain 1 (GST-tagged)", "gcPBM binding intensity (ln)": 6.77}
{"BIOSEQUENCE": "TTTTTTTTTTTGTGAGTGCACGTATGAAGAGAAAAA", "TARGET_OR_TEST_SYSTEM": "PfSIP2 AP2 domain 1 (GST-tagged)", "gcPBM binding intensity (ln)": 10.8}
{"BIOSEQUENCE": "AAAAATAAAAGGTGTGCACACAAAAATATATATATA [CACACA_site8507]", "TARGET_OR_TEST_SYSTEM": "PfSIP2 AP2 domain 1 (GST-tagged)", "gcPBM binding intensity (ln)": 8.89}
{"BIOSEQUENCE": "AAAAATAAGATATATACACACATATAAATATAAATA [CACACA_site7396]", "TARGET_OR_TEST_SYSTEM": "PfSIP2 AP2 domain 1 (GST-tagged)", "gcPBM binding intensity (ln)": 6.82}
